src = ChEMBL document CHEMBL1772961

target: Prostaglandin G/H synthase 2 (Homo sapiens); assay: Inhibition of COX2 in human whole blood assessed as inhibition of LPS-induced PGE2 production after 24 hrs by ELISA
pIC50: −log10 of the molar value.
MEASURED_METRIC: pIC50

Worked examples, 5 compounds total:
O=[N+]([O-])c1cccc(Oc2ccc(OCCN3CCCC3)cc2)c1 : 4.89
CS(=O)(=O)c1ccc(Oc2ccc(OCCN3CCCC3)cc2)c([N+](=O)[O-])c1 : < 4.00
FC(F)(F)c1ccc(Oc2ccc(OCCN3CCCC3)cc2)cc1 : < 4.00
Nc1ccc(Oc2ccc(OCCN3CCCC3)cc2)cc1 : < 4.00
c1cnc(Oc2ccc(OCCN3CCCC3)cc2)cn1 : < 4.00

Return pIC50 measured with Prostaglandin G/H synthase 2 (Homo sapiens) given this compound: CS(=O)(=O)Nc1ccc(Oc2ccc(OCCN3CCCC3)cc2)cc1
< 4.00

Try O=[N+]([O-])c1ccc(Oc2ccc(OCCN3CCCC3)cc2)c([N+](=O)[O-])c1 next.
< 4.00

Try Nc1cccc(Oc2ccc(OCCN3CCCC3)cc2)c1 next.
< 4.00

Try Brc1ccc(Oc2ccc(OCCN3CCCC3)cc2)cc1 next.
5.29

---

Molecular target: Leukotriene A-4 hydrolase (Homo sapiens)
Sequence (P09960 whole entry): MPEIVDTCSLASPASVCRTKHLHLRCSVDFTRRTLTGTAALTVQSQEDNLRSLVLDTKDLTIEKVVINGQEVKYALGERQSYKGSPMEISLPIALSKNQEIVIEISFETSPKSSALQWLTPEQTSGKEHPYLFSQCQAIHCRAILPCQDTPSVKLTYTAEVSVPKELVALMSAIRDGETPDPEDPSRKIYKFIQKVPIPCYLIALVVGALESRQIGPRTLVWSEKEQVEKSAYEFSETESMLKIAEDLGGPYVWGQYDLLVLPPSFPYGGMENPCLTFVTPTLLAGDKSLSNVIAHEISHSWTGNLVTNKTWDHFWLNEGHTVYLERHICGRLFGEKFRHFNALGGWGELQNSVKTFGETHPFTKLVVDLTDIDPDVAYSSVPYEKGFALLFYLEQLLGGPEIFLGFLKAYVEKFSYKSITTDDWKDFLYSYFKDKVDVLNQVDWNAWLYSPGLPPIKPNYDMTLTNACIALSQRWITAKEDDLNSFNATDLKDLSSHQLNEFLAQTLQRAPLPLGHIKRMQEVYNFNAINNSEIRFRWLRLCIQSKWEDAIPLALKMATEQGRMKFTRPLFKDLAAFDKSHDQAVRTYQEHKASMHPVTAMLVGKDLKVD
Test: Inhibition of human LTA4 hydrolase activity assessed as LTB4 production after 15 mins by ELISA
pIC50: −log10 of the molar value.
MEASURED_METRIC: pIC50

(a) O=[N+]([O-])c1ccccc1Oc1ccc(OCCN2CCCC2)cc1
(b) CS(=O)(=O)Nc1ccc(Oc2ccc(OCCN3CCCC3)cc2)cc1
(c) FC(F)(F)c1ccccc1Oc1ccc(OCCN2CCCC2)cc1
(d) Clc1ccc(Oc2ccc(OCCN3CCCC3)cc2)cc1
Order the above compounds by increasing pIC50. # output: labels, in the requested order
b, a, c, d
(b: 5.47, a: 6.17, c: 6.66, d: 7.40)

(P) c1cnc(Oc2ccc(OCCN3CCCC3)cc2)cn1
(Q) O=[N+]([O-])c1cccnc1Oc1ccc(OCCN2CCCC2)cc1
Of P and Q , whose reported pIC50 is numerically smaller? Reply briefly: the label of your chosen item.
P

(a) Fc1ccc(Oc2ccc(OCCN3CCCC3)cc2)cc1
(b) FC(F)(F)c1ccc(Oc2ccc(OCCN3CCCC3)cc2)cc1
Of a and b , whose reported pIC50 is numerically smaller? Reply briefly: the label of your chosen item.
b
(b: 6.41, a: 7.10)

---

The reader will find reported IC50 values listed item by item below.
target: Prostaglandin G/H synthase 1 (Homo sapiens, UniProt P23219)
Sequence (P23219 whole entry): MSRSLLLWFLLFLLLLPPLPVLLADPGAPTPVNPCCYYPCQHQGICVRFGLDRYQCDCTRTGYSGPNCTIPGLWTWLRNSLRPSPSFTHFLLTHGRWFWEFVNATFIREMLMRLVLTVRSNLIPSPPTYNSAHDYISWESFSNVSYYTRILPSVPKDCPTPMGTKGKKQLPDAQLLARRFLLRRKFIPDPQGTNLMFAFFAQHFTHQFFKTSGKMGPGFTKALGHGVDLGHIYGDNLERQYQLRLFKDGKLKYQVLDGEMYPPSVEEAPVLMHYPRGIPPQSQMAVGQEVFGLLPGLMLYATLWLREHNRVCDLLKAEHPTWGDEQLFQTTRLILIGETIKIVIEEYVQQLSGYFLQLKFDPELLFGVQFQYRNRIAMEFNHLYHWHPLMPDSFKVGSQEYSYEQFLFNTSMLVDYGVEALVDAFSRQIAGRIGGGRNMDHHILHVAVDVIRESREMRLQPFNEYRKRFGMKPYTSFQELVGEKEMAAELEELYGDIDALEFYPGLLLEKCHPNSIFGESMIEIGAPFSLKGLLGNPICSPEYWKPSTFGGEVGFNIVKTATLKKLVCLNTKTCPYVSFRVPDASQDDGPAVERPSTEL

O=[N+]([O-])c1cccnc1Oc1ccc(OCCN2CCCC2)cc1 : > 100 µM
O=[N+]([O-])c1ccc(Oc2ccc(OCCN3CCCC3)cc2)cc1 : 20.4 µM

Please look up its IC50: FC(F)(F)c1ccc(Oc2ccc(OCCN3CCCC3)cc2)cc1
> 100 µM

---

biological target: UniProt P09960; experiment: Inhibition of human LTA4 hydrolase activity assessed as LTB4 production after 15 mins by ELISA
MEASURED_METRIC: IC50 (nM)

O=[N+]([O-])c1ccc(Oc2ccc(OCCN3CCCC3)cc2)cc1 : 370

(A) Nc1ccc(Oc2ccc(OCCN3CCCC3)cc2)cc1
(B) c1cc(Oc2ccc(OCCN3CCCC3)cc2)ccn1
Hi there! Just curious which has the higher IC50 between A and B . Reply briefly: the label of your chosen item.
B

---

molecular target: Leukotriene A-4 hydrolase (Homo sapiens); experiment: Inhibition of human LTA4 hydrolase activity assessed as LTB4 production after 15 mins by ELISA
MEASURED_METRIC: IC50 (nM)

Worked examples, 3 compounds total:
Nc1ccccc1Oc1ccc(OCCN2CCCC2)cc1 : 630
Nc1cccc(Oc2ccc(OCCN3CCCC3)cc2)c1 : 690
FC(F)(F)c1cccc(Oc2ccc(OCCN3CCCC3)cc2)c1 : 540

(I) c1ccc(Oc2ccc(OCCN3CCCC3)cc2)nc1
(II) O=[N+]([O-])c1cccc(Oc2ccc(OCCN3CCCC3)cc2)c1
(III) Brc1ccc(Oc2ccc(OCCN3CCCC3)cc2)cc1
Order field: IC50 | Direction: descending (largest first) # output: labels, in the requested order
I, II, III

---

biological target: Prostaglandin G/H synthase 2 (Homo sapiens); test: Inhibition of purified COX2 assessed as formation of oxidized TMPD during reduction og PGG2 to PGH2 preincubated for 15 mins by chromogenic assay
The reader will find reported IC50 values listed item by item below.

Please look up its IC50: CS(=O)(=O)N(c1ccccc1Oc1ccc(OCCN2CCCC2)cc1)S(C)(=O)=O
> 100 µM

Try FC(F)(F)c1ccc(Oc2ccc(OCCN3CCCC3)cc2)cc1 next.
> 100 µM

Try CS(=O)(=O)c1ccc(Oc2ccc(OCCN3CCCC3)cc2)c([N+](=O)[O-])c1 next.
> 100 µM

---

target: Prostaglandin G/H synthase 2 (Homo sapiens, UniProt P35354); experiment: Inhibition of COX2 in human whole blood assessed as inhibition of LPS-induced PGE2 production after 24 hrs by ELISA
Sequence (P35354 whole entry): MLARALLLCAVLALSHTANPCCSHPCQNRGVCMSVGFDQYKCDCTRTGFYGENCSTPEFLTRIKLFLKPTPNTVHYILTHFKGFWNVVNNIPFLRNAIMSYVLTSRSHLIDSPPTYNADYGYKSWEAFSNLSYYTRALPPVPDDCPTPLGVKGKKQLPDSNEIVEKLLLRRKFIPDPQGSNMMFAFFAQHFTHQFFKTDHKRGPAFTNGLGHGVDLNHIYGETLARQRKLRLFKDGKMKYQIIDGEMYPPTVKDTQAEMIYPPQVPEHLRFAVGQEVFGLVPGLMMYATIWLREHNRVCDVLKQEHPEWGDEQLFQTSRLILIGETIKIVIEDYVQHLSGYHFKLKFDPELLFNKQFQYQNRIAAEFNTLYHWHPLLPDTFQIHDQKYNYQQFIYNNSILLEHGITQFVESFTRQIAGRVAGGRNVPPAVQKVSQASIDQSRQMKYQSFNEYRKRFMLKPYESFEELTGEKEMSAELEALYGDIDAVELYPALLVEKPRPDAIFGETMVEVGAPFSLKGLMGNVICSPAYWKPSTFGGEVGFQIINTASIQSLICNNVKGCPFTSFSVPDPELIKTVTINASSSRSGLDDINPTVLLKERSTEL
The reader will find reported IC50 values listed item by item below.

CN(c1ccccc1Oc1ccc(OCCN2CCCC2)cc1)S(C)(=O)=O : > 100 µM

Please look up its IC50: CS(=O)(=O)c1ccccc1Oc1ccc(OCCN2CCCC2)cc1
> 100 µM

Try CS(=O)(=O)c1cccc(Oc2ccc(OCCN3CCCC3)cc2)c1 next.
> 100 µM

Try O=[N+]([O-])c1ccccc1Oc1ccc(OCCN2CCCC2)cc1 next.
8.4 µM

Try Clc1ccc(Oc2ccc(OCCN3CCCC3)cc2)cc1 next.
22 µM

Try CS(=O)(=O)N(c1ccccc1Oc1ccc(OCCN2CCCC2)cc1)S(C)(=O)=O next.
> 100 µM

Try Fc1ccc(Oc2ccc(OCCN3CCCC3)cc2)cc1 next.
> 100 µM

Try Nc1ccccc1Oc1ccc(OCCN2CCCC2)cc1 next.
> 100 µM

Try O=[N+]([O-])c1ccc(Oc2ccc(OCCN3CCCC3)cc2)cc1 next.
> 100 µM

Try FC(F)(F)c1ccccc1Oc1ccc(OCCN2CCCC2)cc1 next.
5 µM

Try CS(=O)(=O)c1ccc(Oc2ccc(OCCN3CCCC3)cc2)cc1 next.
> 100 µM

---

Target: Leukotriene A-4 hydrolase (Homo sapiens, UniProt P09960)
Sequence (P09960 whole entry): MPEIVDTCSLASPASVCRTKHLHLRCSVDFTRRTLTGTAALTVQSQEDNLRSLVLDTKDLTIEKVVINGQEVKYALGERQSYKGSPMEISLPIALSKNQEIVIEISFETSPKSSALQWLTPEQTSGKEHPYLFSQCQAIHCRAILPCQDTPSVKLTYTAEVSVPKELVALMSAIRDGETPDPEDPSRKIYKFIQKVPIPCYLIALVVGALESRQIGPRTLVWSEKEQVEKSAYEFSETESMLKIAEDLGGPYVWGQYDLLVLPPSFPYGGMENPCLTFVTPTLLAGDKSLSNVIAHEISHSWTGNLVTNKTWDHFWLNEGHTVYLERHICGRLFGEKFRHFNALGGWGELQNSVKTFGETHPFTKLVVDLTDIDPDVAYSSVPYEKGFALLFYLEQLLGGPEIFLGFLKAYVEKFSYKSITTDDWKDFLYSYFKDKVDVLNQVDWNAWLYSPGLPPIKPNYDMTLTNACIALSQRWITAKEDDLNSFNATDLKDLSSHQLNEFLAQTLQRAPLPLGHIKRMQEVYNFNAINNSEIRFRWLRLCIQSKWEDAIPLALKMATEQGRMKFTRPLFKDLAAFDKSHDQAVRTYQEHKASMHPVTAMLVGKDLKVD
Assay: Inhibition of LTA4 hydrolase in human whole blood assessed as inhibition of calcium ionophore A23187-induced LTB4 production after 0.5 hrs by ELISA
pIC50: −log10 of the molar value.
MEASURED_METRIC: pIC50

Worked examples, 3 compounds total:
CS(=O)(=O)Nc1ccc(Oc2ccc(OCCN3CCCC3)cc2)cc1 : 5.68
O=[N+]([O-])c1ccccc1Oc1ccc(OCCN2CCCC2)cc1 : 5.16
FC(F)(F)c1ccccc1Oc1ccc(OCCN2CCCC2)cc1 : 6.14

(I) Nc1ccc(Oc2ccc(OCCN3CCCC3)cc2)cc1
(II) c1ccc(Oc2ccc(OCCN3CCCC3)cc2)nc1
Hi there! Just curious which has the higher pIC50 between I and II . Reply briefly: the label of your chosen item.
I
(I: 7.54, II: 6.74)
